- EXPERIMENTAL SYSTEM: Beta Secretase enzyme (BACE) (Homo sapiens, UniProt P56817)
- Sequence (P56817 46-501, species assumed): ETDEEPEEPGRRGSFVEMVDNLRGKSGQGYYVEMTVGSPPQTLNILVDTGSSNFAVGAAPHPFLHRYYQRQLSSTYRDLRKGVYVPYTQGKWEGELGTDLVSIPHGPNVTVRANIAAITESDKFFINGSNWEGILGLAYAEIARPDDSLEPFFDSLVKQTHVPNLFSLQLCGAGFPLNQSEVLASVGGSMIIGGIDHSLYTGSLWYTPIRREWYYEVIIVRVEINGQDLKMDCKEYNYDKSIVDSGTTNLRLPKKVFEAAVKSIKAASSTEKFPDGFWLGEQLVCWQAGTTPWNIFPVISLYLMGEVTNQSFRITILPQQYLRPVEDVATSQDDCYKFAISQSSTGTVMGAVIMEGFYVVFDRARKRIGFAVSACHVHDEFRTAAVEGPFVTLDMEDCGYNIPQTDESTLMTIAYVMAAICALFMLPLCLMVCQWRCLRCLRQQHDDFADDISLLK
- PROCEDURE DETAILS: In vitro enzymatic BACE FRET (fluorescence resonance energy transfer) assay
- Type: biochemical
- CONDITION LABEL: average IC50, enzyme assay; read-out: BACE 1 FRET assay
Below, each of the compounds is paired with its reported IC50 value.
MEASURED ENDPOINT: IC50 (nM)

| COMPOUND | RECORDED RESULT |
| --- | --- |
| NC1=N[C@@]2(CO1)c1cc(-c3c(F)ccnc3F)ccc1Oc1cnc([C@H]3CCCOC3)cc12 (mixture of isomers) [Example 909] | 19.8 |
| NC1=N[C@@]2(CO1)c1cc(-c3cccnc3F)ccc1Oc1c(F)cc(-c3cnccn3)cc12 [Example 205] | 1.6 |
| Cc1cnc(-c2cc(F)c3c(c2)[C@]2(COC(N)=N2)c2cc(-c4cccnc4F)ccc2O3)nc1 [Example 226] | 3.9 |
| COCC1SC(N)=N[C@@]12c1cc(-c3cccnc3F)ccc1Oc1cnc(-c3ccnc(F)c3)cc12 (stereo partly shown) [Example 1094] | 4.3 |
| CC#Cc1cncc(-c2ccc3c(c2)[C@@]2(COC(N)=N2)c2cc(C4=CCCOC4)cnc2O3)c1 [Example 950] | 0.3 |
| NC1=N[C@@]2(CO1)c1cc(-c3c(F)ccnc3F)ccc1Oc1c(F)cc(C3=CCOCC3)cc12 [Example 565] | 2 |
| NC1=N[C@@]2(CO1)c1cc(-c3c(F)ccnc3F)ccc1Oc1cnc([C@H]3CCCCO3)cc12 [Example 617] | 5.2 |

---

- Tested on: Abeta 40 in cerebrospinal fluid (CSF) and brain
- PROCEDURE DETAILS: In vivo inhibition of beta-secretase (Abeta 40 reduction in CSF and brain)
- CONDITION LABEL: rat, brain, Abeta 40, 10 mg/kg (10 mpk), after 4 hrs; read-out: Brain A-beta reduction % at 10 mg/kg

| SMILES ENTRY | UNIT INFO | inhibition in vivo at 10 mg/kg |
| --- | --- | --- |
| NC1=N[C@@]2(CS1)c1cc(-c3cccnc3F)ccc1Oc1c(F)cc(N3CCC(F)(F)CC3)cc12 | % | 33 |
| CC1(C)C=C(c2ccc3c(c2)[C@]2(COC(N)=N2)c2cc(-c4cncnc4)c(F)cc2O3)CCO1 | % | 25 |
| CC(F)(F)COc1cc(F)c2c(c1)[C@]1(CSC(N)=N1)c1cc(-c3cccnc3F)ccc1O2 | % | 27 |
| Cc1ccnc(F)c1-c1ccc2c(c1)[C@@]1(COC(N)=N1)c1cc(C3=CCOCC3)ncc1O2 | % | 34 |
| COc1nc(-c2ccnc(F)c2)cc2c1Oc1ccc(-c3cccnc3)cc1[C@@]21COC(N)=N1 | % | 23 |
| NC1=N[C@@]2(CS1)c1cc(-c3cccnc3F)ccc1Oc1c(F)cc(N3C[C@@H]4C[C@H]3CO4)cc12 | % | 50 |
| NC1=N[C@@]2(CS1)c1cc(-c3cccnc3F)ccc1Oc1ncc(C3=CCCOC3)cc12 | % | 47 |

---

We begin with a simple list: items and their reported pIC50.
- Tested on: Aβ40 in conditioned medium of cells stably expressing Amyloid Precursor Protein (APP)
- PROCEDURE DETAILS: In vitro BACE cell-based assay (Aβ40 in conditioned medium, sandwich ELISA)
- CONDITION LABEL: Homo sapiens, HEK293, average IC50; read-out: HEK cell assay
pIC50: −log10 of the molar value.

| SMILES ENTRY | OPERATOR | pIC50 |
| --- | --- | --- |
| NC1=N[C@@]2(CO1)c1cc(-c3cc(C4=CCOCC4)cnc3F)ccc1Oc1cnc(C3=CCOCC3)cc12 | = | 6.94 |
| NC1=N[C@@]2(CO1)c1cc(-c3cccnc3F)ccc1Oc1c(F)cc(N3CC4CCC(C3)O4)cc12 | = | 8.80 |
| NC1=N[C@]2(CO1)c1cc(C3=CCOCC3)ccc1Oc1ccc(-c3cncc(F)c3)cc12 | = | 7.74 |
| CC1(COc2cc3c(cc2F)Oc2ccc(-c4cncc(C#N)c4)cc2[C@@]32COC(N)=N2)COC1 | = | 7.47 |
| NC1=N[C@@]2(CO1)c1cc(-c3cccnc3F)ccc1Oc1c(F)cc(C3=CCOC3)cc12 | = | 8.10 |
| NC1=N[C@@]2(CO1)c1cc(-c3cccnc3O)ccc1Oc1cnc(-c3ccnc(F)c3)cc12 | = | 5.96 |
| NC1=N[C@@]2(CO1)c1cc(OCc3cccnc3)ccc1Oc1ncc(C3=CCOCC3)cc12 | = | 6.81 |
| NC1=N[C@]2(CO1)c1cc(-c3cccnc3F)ccc1Oc1c2cc(C#Cc2cccnc2)nc1F | ≤ | 5.00 |
| CC1(C)CC(c2cc3c(c(F)n2)Oc2ccc(-c4cccnc4F)cc2[C@]32CSC(N)=N2)=CCO1 | = | 6.92 |
| NC1=N[C@@]2(CO1)c1cc(-c3cccnc3F)ccc1Oc1c(F)cc(N3CC4(COC4)C3)cc12 | = | 8.70 |
| NC1=N[C@@]2(CO1)c1cc(-c3cccnc3F)ccc1Oc1c(F)cc(-c3cncnc3)cc12 | = | 7.73 |
| COc1cc(F)c2c(c1)[C@]1(COC(N)=N1)c1cc(-c3cncc(C#CCO)c3)ccc1O2 | = | 7.68 |
| NC1=N[C@@]2(CS1)c1cc(-c3c(F)ccnc3F)ccc1Oc1cnc(-c3ccnc(F)c3)cc12 | = | 7.74 |
| NC1=N[C@]2(CS1)c1cc(-c3cccnc3F)ccc1Oc1cnc(-c3ccnc(F)c3)cc12 | = | 5.74 |
| NC1=N[C@@]2(CO1)c1cc(-c3cnccn3)ccc1Oc1c(F)cc(N3C[C@@H]4C[C@H]3CO4)cc12 | = | 7.58 |

---

- System: Aβ40 in conditioned medium of cells stably expressing Amyloid Precursor Protein (APP)
- PROCEDURE DETAILS: In vitro BACE cell-based assay (Aβ40 in conditioned medium, sandwich ELISA)
- CONDITION LABEL: Homo sapiens, HEK293, average IC50; read-out: HEK cell assay

| COMPOUND | IC50 (nM) |
| --- | --- |
| N#Cc1cccc(-c2ccc3c(c2)C2(COC(N)=N2)c2cc(C4CCOCC4)nc(F)c2O3)c1 (stereo not drawn) | 42 |
| NC1=N[C@@]2(CO1)c1cc(-c3cccnc3F)ccc1Oc1c(F)cc(-c3ncccn3)cc12 | 8.2 |
| NC1=N[C@@]2(CO1)c1cc(-c3cccnc3F)ncc1Oc1c(F)cc(C3=CCOCC3)cc12 | 56.7 |

---

- EXPERIMENTAL SYSTEM: Beta Secretase enzyme (BACE) (Homo sapiens)
- PROCEDURE DETAILS: In vitro enzymatic BACE FRET (fluorescence resonance energy transfer) assay
- Format: biochemical
- CONDITION LABEL: average IC50, enzyme assay; read-out: BACE 1 FRET assay
pIC50: −log10 of the molar value.
MEASURED ENDPOINT: pIC50

| SMILES ENTRY | RECORDED RESULT |
| --- | --- |
| CC1(COc2cc(F)c3c(c2)[C@@]2(CSC(N)=N2)c2cc(-c4cccnc4)c(F)cc2O3)COC1 | 6.74 |
| Cc1ccc(-c2cc(F)c3c(c2)[C@]2(COC(N)=N2)c2cc(-c4cccnc4F)ccc2O3)nn1 | 9.30 |
| NC1=N[C@@]2(CS1)c1cc(-c3cccnc3F)ccc1Oc1cnc(Cl)cc12 | 7.27 |
| COc1cc(F)c2c(c1)[C@]1(COC(N)=N1)c1cc(-c3cncc(C#CC(C)(C)OC)c3)ccc1O2 | 7.00 |

---

- EXPERIMENTAL SYSTEM: Beta Secretase enzyme (BACE) (Homo sapiens, UniProt P56817)
- PROCEDURE DETAILS: In vitro enzymatic BACE FRET (fluorescence resonance energy transfer) assay
- Format: biochemical
- CONDITION LABEL: average IC50, enzyme assay; read-out: BACE 1 FRET assay
// map IC50 onto a label; ranges lower level: < 1 nM; middle level: ≥ 1 nM and < 50 nM; upper level: ≥ 50 nM

| COMPOUND | EXPERIMENTAL SYSTEM | ANSWER LABEL |
| --- | --- | --- |
| Cn1cc(-c2cncc(-c3ccc4c(c3)[C@@]3(COC(N)=N3)c3cc(-c5cnn(C)c5)ncc3O4)c2)cn1 [Example 233] | Beta Secretase enzyme (BACE) (Homo sapiens, UniProt P56817) | middle level |
| NC1=N[C@]2(CS1)c1cc(-c3cccc(C4=CCOCC4)c3)ccc1Oc1cnc(C3=CCOCC3)cc12 [Example 596] | Beta Secretase enzyme (BACE) (Homo sapiens, UniProt P56817) | middle level |
| NC1=N[C@@]2(CO1)c1cc(-c3cncc(F)c3)ccc1Oc1c2cc(C2=CCOCC2)nc1F [Example 615] | Beta Secretase enzyme (BACE) (Homo sapiens, UniProt P56817) | lower level |
| NC1=N[C@]2(CS1)c1cc(-c3cncnc3)c(F)cc1Oc1c(F)cc(N3CCOCC3)cc12 [Example 887] | Beta Secretase enzyme (BACE) (Homo sapiens, UniProt P56817) | upper level |
| N#Cc1cccc(-c2ccc3c(c2)[C@@]2(COC(N)=N2)c2cc(N4CCC(F)(F)C4)nc(F)c2O3)c1 [Example 920] | Beta Secretase enzyme (BACE) (Homo sapiens, UniProt P56817) | lower level |
| CC1(C)C=C(c2cnc3c(c2)[C@]2(COC(N)=N2)c2c(ccc(-c4cccnc4F)c2F)O3)CCO1 [Example 348] | Beta Secretase enzyme (BACE) (Homo sapiens, UniProt P56817) | lower level |
| NC1=N[C@@]2(CO1)c1cc(OCc3cccc(F)c3)ccc1Oc1ncc(-c3cccnc3)cc12 [Example 982] | Beta Secretase enzyme (BACE) (Homo sapiens, UniProt P56817) | upper level |
| Cc1cc(-c2ccc3c(c2)[C@@]2(COC(N)=N2)c2cc(C#CC4(C)COC4)cnc2O3)cnc1F [Example 468] | Beta Secretase enzyme (BACE) (Homo sapiens, UniProt P56817) | middle level |
| CC(C)(C#N)COc1cc2c(c(F)c1F)Oc1ccc(-c3cccnc3)cc1[C@@]21COC(N)=N1 [Example 1009] | Beta Secretase enzyme (BACE) (Homo sapiens, UniProt P56817) | middle level |
| NC1=N[C@@]2(CS1)c1cc(-c3cnccc3F)ccc1Oc1ncc(C3=CCOCC3)cc12 [Example 768] | Beta Secretase enzyme (BACE) (Homo sapiens, UniProt P56817) | middle level |
| NC1=N[C@@]2(CO1)c1cc(-c3ccncc3F)ccc1Oc1cnc(-c3cccnc3F)cc12 [Example 574] | Beta Secretase enzyme (BACE) (Homo sapiens, UniProt P56817) | upper level |
| CN1CCN(c2cccc(-c3ccc4c(c3)[C@@]3(COC(N)=N3)c3cc(Cl)ncc3O4)c2)CC1(C)C [Example 531] | Beta Secretase enzyme (BACE) (Homo sapiens, UniProt P56817) | upper level |
| CC(C)(C)C#Cc1ccc2c(c1)[C@]1(COC(N)=N1)c1cc(-c3cncnc3)c(F)cc1O2 [Example 497] | Beta Secretase enzyme (BACE) (Homo sapiens, UniProt P56817) | middle level |
| NC1=N[C@@]2(CO1)c1cc(-c3cncc(F)c3)ccc1Oc1c2cc(-c2cccnc2)nc1F [Example 630] | Beta Secretase enzyme (BACE) (Homo sapiens, UniProt P56817) | lower level |
